# half-life at 1 μM annotations
Assay method text: Metabolic stability in rat liver microsomes
Format: in vitro ADME
Measurement parameters: SD, pH 7.4, 1 μM compound, 0.5 mg/mL protein, read-out: t1/2 (min), Rat liver microsome experiment
// return numeric value only (unit: min, not printed)

Consider the following illustrative entries.
INSERT INTO assay_data (molecule, property_measured, quantity_unit, numeric_result) VALUES
  ('CNCC(C)(C)c1ccc(Nc2ncc(Cl)c(Nc3ccccc3P(C)(C)=O)n2)c(OC)c1 [Example 11]', 'half-life at 1 μM', 'min', 194),
  ('COc1cc(CCN2CCCCC2)ccc1Nc1ncc(Cl)c(Nc2ccccc2P(C)(C)=O)n1 [Example 4]', 'half-life at 1 μM', 'min', 39.9),
  ('CNCCc1cc(OC)c(Nc2ncc(Cl)c(Nc3ccccc3P(C)(C)=O)n2)cc1C [Example 21]', 'half-life at 1 μM', 'min', 193),
  ('COc1cc(C(C)(C)CN)ccc1Nc1ncc(Cl)c(Nc2ccccc2P(C)(C)=O)n1 [Example 10]', 'half-life at 1 μM', 'min', 92);

Exercise: Name the recorded half-life at 1 μM of the molecule listed here: CNC(C)(C)c1ccc(Nc2ncc(Cl)c(Nc3ccccc3P(C)(C)=O)n2)c(OC)c1 [Example 15]
Key: 78.8

Exercise: Name the recorded half-life at 1 μM of the molecule listed here: COc1cc(C(C)(C)N(C)C)ccc1Nc1ncc(Cl)c(Nc2ccccc2P(C)(C)=O)n1 [Example 14]
Key: 41.5

----------
Tgt: ALK [WT] (Homo sapiens, UniProt Q9UM73)
Assay method text: Kinase inhibition assay, ALK [WT]
Type: biochemical
# IC50 annotations

INSERT INTO assay_data (compound, property_measured, result) VALUES
  ('COc1cc(C(C)(C)CN(C)C)ccc1Nc1ncc(Cl)c(Nc2ccccc2P(C)(C)=O)n1', 'IC50', '2 to 5 nM'),
  ('COc1cc(C(C)N(C)C)ccc1Nc1ncc(Cl)c(Nc2ccccc2P(C)(C)=O)n1 (stereo not shown)', 'IC50', '2 to 5 nM'),
  ('COc1cc(CCN2CCCCC2)ccc1Nc1ncc(Cl)c(Nc2ccccc2P(C)(C)=O)n1', 'IC50', '≤ 2 nM'),
  ('COc1cc(C(C)CN)ccc1Nc1ncc(Cl)c(Nc2ccccc2P(C)(C)=O)n1 (stereo not shown)', 'IC50', '5 to 10 nM'),
  ('CNCCc1cc(OC)c(Nc2ncc(Cl)c(Nc3ccccc3P(C)(C)=O)n2)cc1C', 'IC50', '2 to 5 nM');

Exercise: Name the recorded IC50 of the compound listed here: `COc1cc(CN(C)C)ccc1Nc1ncc(Cl)c(Nc2ccccc2P(C)(C)=O)n1`
Key: 5 to 10 nM

Exercise: Name the recorded IC50 of the compound listed here: `COc1cc(CCN)ccc1Nc1ncc(Cl)c(Nc2ccccc2P(C)(C)=O)n1`
Key: ≤ 2 nM

Exercise: Name the recorded IC50 of the compound listed here: `COc1cc(C(C)(C)CN)ccc1Nc1ncc(Cl)c(Nc2ccccc2P(C)(C)=O)n1`
Key: 2 to 5 nM

Exercise: Name the recorded IC50 of the compound listed here: `CNC(C)(C)c1ccc(Nc2ncc(Cl)c(Nc3ccccc3P(C)(C)=O)n2)c(OC)c1`
Key: ≤ 2 nM

----------
Tgt: BaF3 [EML4-ALK] (Homo sapiens, UniProt Q9UM73)
Construct: IC50(nM) ALK (Ba/F3); other: 72 hours, CellTiter-Glo; BaF3 [EML4-ALK]; fused on or other part: Q9HC35 (Echinoderm microtubule-associated protein-like 4)
Sequence (Q9UM73 whole entry, change not shown, the tested form may be a part): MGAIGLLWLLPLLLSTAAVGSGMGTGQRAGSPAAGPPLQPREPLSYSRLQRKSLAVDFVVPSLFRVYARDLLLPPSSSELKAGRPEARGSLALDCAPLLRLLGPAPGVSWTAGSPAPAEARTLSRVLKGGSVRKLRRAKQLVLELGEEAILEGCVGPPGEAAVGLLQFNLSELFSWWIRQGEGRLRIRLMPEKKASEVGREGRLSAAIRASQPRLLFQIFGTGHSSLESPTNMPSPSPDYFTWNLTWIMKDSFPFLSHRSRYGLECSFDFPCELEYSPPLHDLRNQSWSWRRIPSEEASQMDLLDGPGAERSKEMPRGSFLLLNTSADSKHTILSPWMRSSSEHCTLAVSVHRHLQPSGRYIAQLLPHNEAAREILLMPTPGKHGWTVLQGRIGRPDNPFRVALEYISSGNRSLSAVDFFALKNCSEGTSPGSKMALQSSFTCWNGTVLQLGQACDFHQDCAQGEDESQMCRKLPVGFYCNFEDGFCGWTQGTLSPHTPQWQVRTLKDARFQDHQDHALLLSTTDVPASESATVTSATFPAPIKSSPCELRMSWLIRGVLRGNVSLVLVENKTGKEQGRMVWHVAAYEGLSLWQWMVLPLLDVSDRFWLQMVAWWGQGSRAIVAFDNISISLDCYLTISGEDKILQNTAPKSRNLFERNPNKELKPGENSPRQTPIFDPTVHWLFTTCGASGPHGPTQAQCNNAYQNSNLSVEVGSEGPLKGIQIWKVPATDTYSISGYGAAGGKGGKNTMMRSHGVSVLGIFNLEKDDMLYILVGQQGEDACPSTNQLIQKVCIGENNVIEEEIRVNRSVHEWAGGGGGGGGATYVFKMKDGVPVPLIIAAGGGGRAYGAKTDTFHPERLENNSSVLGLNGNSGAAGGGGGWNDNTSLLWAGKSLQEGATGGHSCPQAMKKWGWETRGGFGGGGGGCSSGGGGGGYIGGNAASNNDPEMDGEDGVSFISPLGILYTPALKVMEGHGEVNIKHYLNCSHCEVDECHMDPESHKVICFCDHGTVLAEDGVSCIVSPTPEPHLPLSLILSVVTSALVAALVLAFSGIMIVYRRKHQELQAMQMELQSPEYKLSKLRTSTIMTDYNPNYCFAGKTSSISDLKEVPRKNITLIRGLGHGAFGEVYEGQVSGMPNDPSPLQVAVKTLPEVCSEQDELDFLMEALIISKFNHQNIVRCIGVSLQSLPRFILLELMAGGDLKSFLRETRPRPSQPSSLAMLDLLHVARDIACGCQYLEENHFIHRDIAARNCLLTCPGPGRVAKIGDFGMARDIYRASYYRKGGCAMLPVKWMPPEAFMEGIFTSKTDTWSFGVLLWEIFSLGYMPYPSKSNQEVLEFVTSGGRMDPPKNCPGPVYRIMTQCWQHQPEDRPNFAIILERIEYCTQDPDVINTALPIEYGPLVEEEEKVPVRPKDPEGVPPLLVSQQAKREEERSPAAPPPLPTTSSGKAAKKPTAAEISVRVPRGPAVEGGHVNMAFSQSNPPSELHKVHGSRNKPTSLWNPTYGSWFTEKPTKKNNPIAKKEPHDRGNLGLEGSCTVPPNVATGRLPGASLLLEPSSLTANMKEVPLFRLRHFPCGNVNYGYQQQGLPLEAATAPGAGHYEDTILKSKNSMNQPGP
Assay method text: Cytotoxicity test (CellTiter-Glo), BaF3 [EML4-ALK]
Format: cell-based
Measurement parameters: 72 hours, CellTiter-Glo; read-out: IC50(nM) ALK (Ba/F3)
Property measured: GI50

Consider the following illustrative entries.
INSERT INTO assay_data (molecule, result) VALUES
  ('COc1cc(C(C)(C)N(C)C)ccc1Nc1ncc(Cl)c(Nc2ccccc2P(C)(C)=O)n1 [Example 14]', '< 25 nM'),
  ('COc1cc(CCN(C)C)ccc1Nc1ncc(Cl)c(Nc2ccccc2P(C)(C)=O)n1 [Example 3]', '25 to 50 nM');

Next item in the queue.
Exercise: Name the recorded GI50 of the molecule listed here: CNC(C)(C)c1ccc(Nc2ncc(Cl)c(Nc3ccccc3P(C)(C)=O)n2)c(OC)c1 [Example 15]
Key: 50 to 100 nM
